Values were extracted from patent US4279887A.

experiment: Bioassay of I-123-labeled compounds: organ distribution of activity 5 minutes after tail vein injection; assay type: in vivo, Female Sprague-Dawley rats; settings: rat, in vivo, iv, 5 min
Parameter Measured: Percent Dose in Stomach (Percent Dose)

| Molecule | Observed Result |
| --- | --- |
| CN(C)C(=O)c1ccccc1[123I] [Example 10, N, N-dimethyl-o-iodobenzamide] | 0.93 |
| CCCCCCNC(=O)c1ccccc1[123I] [Example 3, N-hexyl-o-iodobenzamide] | 0.86 |
| O=C(NNc1ccccc1)c1ccccc1[123I] [Example 13, o-iodobenzphenylhydrazide] | 1.10 |
| NC(=O)c1ccccc1[123I] [Example 2, o-iodobenzamide] | 0.93 |
| O=C(NO)c1ccccc1[123I] [Example 14, o-iodobenzohydramic acid] | 0.96 |
